# Tested on: NCI-H23 lung
# Procedure summary: NCI tumour cell line growth inhibition, 48 h
Recorded measurements of TGI, one per entry

[
  {
    "Molecule": "COC(=O)[C@H]1[C@H]2C[C@@H]3c4[nH]c5cc(OC)ccc5c4CCN3C[C@H]2C[C@@H](OC(=O)c2cc(OC)c(OC)c(OC)c2)[C@@H]1OC",
    "Readout relation": "=",
    "TGI (µM)": 41.7
  },
  {
    "Molecule": "O=[N+]([O-])c1cc([N+](=O)[O-])c(Cl)c(Cl)c1Cl",
    "Readout relation": "=",
    "TGI (µM)": 8.04
  },
  {
    "Molecule": "COc1cc(O)c2c(=O)c(OC)c(-c3ccc4c(c3)OCO4)oc2c1",
    "Readout relation": ">",
    "TGI (µM)": 100
  },
  {
    "Molecule": "Cc1cc(=O)n(-c2ccccc2)c(=O)o1",
    "Readout relation": ">",
    "TGI (µM)": 100
  },
  {
    "Molecule": "CC1(C)CCC[C@@]2(C)C1C[C@H](O)[C@@]1(C)O[C@@](C)([C@H](O)CO)CCC21 (stereo not given in full)",
    "Readout relation": ">",
    "TGI (µM)": 100
  }
]

====

Recorded TGI by entry
# System: SW-620 colon
# Procedure summary: NCI tumour cell line growth inhibition, 48 h
Reported endpoint: TGI (µM)

[
  {
    "Compound": "C/C(=N/NC(=O)c1ccncc1)c1ccc(NC(=O)C(=O)Nn2c(=S)[nH]c3ccccc3c2=O)cc1",
    "Measurement target": "SW-620 colon",
    "Unit spec": "µM",
    "Readout relation": ">",
    "Quantitative result": 100
  },
  {
    "Compound": "CCCCCCCC(=O)OC[n+]1ccc(-c2c(COC(=O)NC(C)C)c(COC(=O)NC(C)C)c3n2CCC3)cc1",
    "Measurement target": "SW-620 colon",
    "Unit spec": "µM",
    "Readout relation": "=",
    "Quantitative result": 60.8
  },
  {
    "Compound": "COc1ccc(C[n+]2c3ccccc3n3c4ccc(N)cc4ccc32)c(OC)c1OC",
    "Measurement target": "SW-620 colon",
    "Unit spec": "µM",
    "Readout relation": "=",
    "Quantitative result": 36.5
  },
  {
    "Compound": "Oc1c(C(Nc2cccc3ccccc23)c2ccccc2)ccc2cccnc12 (stereo unspecified)",
    "Measurement target": "SW-620 colon",
    "Unit spec": "µM",
    "Readout relation": "=",
    "Quantitative result": 24
  },
  {
    "Compound": "C=C[C@@H](OCOCC[Si](C)(C)C)[C@@H](CC)OC(CCCOC(=O)C(C)(C)C)OC (stereo partly specified)",
    "Measurement target": "SW-620 colon",
    "Unit spec": "µM",
    "Readout relation": "=",
    "Quantitative result": 70.1
  },
  {
    "Compound": "CCn1nc(C)c2c1C(=O)NC(C)C(=O)N2 (stereo unspecified)",
    "Measurement target": "SW-620 colon",
    "Unit spec": "µM",
    "Readout relation": ">",
    "Quantitative result": 100
  },
  {
    "Compound": "CCNC(C)(C)C(SS)c1ccc(Br)cc1 (stereo unspecified)",
    "Measurement target": "SW-620 colon",
    "Unit spec": "µM",
    "Readout relation": "=",
    "Quantitative result": 56.2
  },
  {
    "Compound": "O=C1c2ccccc2C(=O)C2C1C1C(=O)c3ccccc3C(=O)C21 (stereo unspecified)",
    "Measurement target": "SW-620 colon",
    "Unit spec": "µM",
    "Readout relation": ">",
    "Quantitative result": 100
  },
  {
    "Compound": "N=C(N)C1CN(CCc2cnc[nH]2)C(=O)NC1=O (stereo unspecified)",
    "Measurement target": "SW-620 colon",
    "Unit spec": "µM",
    "Readout relation": ">",
    "Quantitative result": 100
  },
  {
    "Compound": "O=C(CCN1CCOCC1)Nc1ccc(F)cc1F",
    "Measurement target": "SW-620 colon",
    "Unit spec": "µM",
    "Readout relation": ">",
    "Quantitative result": 100
  },
  {
    "Compound": "CCC[C@H](O)[C@@H](CNc1cc(NC(C)=O)nc(NC(C)=O)n1)N(Cc1ccccc1)Cc1ccccc1",
    "Measurement target": "SW-620 colon",
    "Unit spec": "µM",
    "Readout relation": ">",
    "Quantitative result": 100
  }
]

====

Below, each entry is listed alongside its reported TGI.
# Tested on: OVCAR-3 ovarian
# Procedure summary: NCI tumour cell line growth inhibition, 48 h

[
  {
    "Compound": "CC(=O)OCCOCNC(=S)N/N=C/c1ccc2ccccc2n1",
    "Readout relation": ">",
    "TGI / µM": 100
  },
  {
    "Compound": "Cc1c(C)c2c(c(C)c1NC(=O)/C=C\\C(=O)O)CCC(C)(CCCC(C)CCCC(C)CCCC(C)C)O2 (centres undefined)",
    "Readout relation": "=",
    "TGI / µM": 2.97
  },
  {
    "Compound": "CN1CCN(c2ccc(-c3ccc4ncc(C#N)c(Nc5ccc(F)c(Cl)c5)c4c3)cc2)CC1",
    "Readout relation": "=",
    "TGI / µM": 6.25
  },
  {
    "Compound": "O=C(/C=C1\\C(=O)N(Cc2ccc([N+](=O)[O-])cc2)c2ccccc21)c1ccc(OCCN2CCCCC2)cc1",
    "Readout relation": "=",
    "TGI / µM": 2.57
  },
  {
    "Compound": "COc1ccc(N(C)CN(C)c2nc(N(C)C)nc(N(C)C)n2)cc1",
    "Readout relation": ">",
    "TGI / µM": 100
  },
  {
    "Compound": "O=[N+]([O-])c1cc([N+](=O)[O-])c(Cl)c(Cl)c1Cl",
    "Readout relation": "=",
    "TGI / µM": 2.4
  },
  {
    "Compound": "COc1ccc(C[n+]2c3ccccc3n3c4ccc(N)cc4ccc32)c(OC)c1OC",
    "Readout relation": "=",
    "TGI / µM": 8.97
  },
  {
    "Compound": "C#CCSc1nc(N)c2ncn(C3OC(CO)C(O)C3O)c2n1 (centres undefined)",
    "Readout relation": ">",
    "TGI / µM": 100
  },
  {
    "Compound": "CC1(C)CCC[C@@]2(C)C1C[C@H](O)[C@@]1(C)O[C@@](C)([C@H](O)CO)CCC21 (some centres undefined)",
    "Readout relation": ">",
    "TGI / µM": 100
  },
  {
    "Compound": "CN1C(OCc2ccccc2)c2c(ccc3c2OCO3)C2C=Cc3cc4c(cc3C21)OCO4 (centres undefined)",
    "Readout relation": "=",
    "TGI / µM": 1.97
  },
  {
    "Compound": "COC1C(O)C(C)OC(OC2C(Oc3cccc4c(O)c5c(=O)oc6ccc(C)c7c(=O)oc(c34)c5c67)OC(C)C3O[C@H](c4ccccc4)OC32)C1O (some centres undefined)",
    "Readout relation": "=",
    "TGI / µM": 5.31
  },
  {
    "Compound": "CC1(C)OCC2(CO1)CSCCCSCC1(COC(C)(C)OC1)CSCCCSC2",
    "Readout relation": ">",
    "TGI / µM": 100
  },
  {
    "Compound": "CNC(=O)CCNC(=O)CCC(=O)N(C)C",
    "Readout relation": ">",
    "TGI / µM": 100
  },
  {
    "Compound": "C=C[C@@H](OCOCC[Si](C)(C)C)[C@@H](CC)OC(CCCOC(=O)C(C)(C)C)OC (some centres undefined)",
    "Readout relation": ">",
    "TGI / µM": 100
  },
  {
    "Compound": "CCOc1cc(-c2nc3ccccn3c2/N=C/c2cc([N+](=O)[O-])cc([N+](=O)[O-])c2O)ccc1O",
    "Readout relation": ">",
    "TGI / µM": 100
  },
  {
    "Compound": "NC(=O)C(c1ccccc1)N1OC2C(=O)N(Cc3ccccc3)C(=O)C2C1c1cccc(Oc2ccc(Cl)cc2)c1 (centres undefined)",
    "Readout relation": "=",
    "TGI / µM": 43.1
  },
  {
    "Compound": "CC1CC(=O)Nc2cc(Cl)ccc2N1C(=O)C1CC1 (centres undefined)",
    "Readout relation": ">",
    "TGI / µM": 100
  },
  {
    "Compound": "Clc1ccccc1C(n1ncc2ccccc21)n1ncc2ccccc21",
    "Readout relation": ">",
    "TGI / µM": 100
  },
  {
    "Compound": "COC(=O)Nc1nc2ccc(Oc3ccc4nc(NC(=O)OC)[nH]c4c3)cc2[nH]1",
    "Readout relation": "=",
    "TGI / µM": 0.744
  }
]
